Reported pKd values follow for various binders
# assayTarget: T1, APC peptide (Homo sapiens)
# T1 chain: KRHSGSYLVTSV
# testProtocol: NMR titration
pKd: −log10 of the molar value.
experimentalReadout: pKd

[[record]]
binder = "PTPN13 (PDZ2 in PDZ2/3 tandem) PDZ2 in PDZ2/3 (protein) EVELAKNDNSLGISVTGGVNTSVRHGGIYVKAVIPQGAAESDGRIHKGDRVLAVNGVSLEGATHKQAVETLRNTGQVVHLLLEKG"
recordedmeasurement = 3.68

[[record]]
binder = "PTPN13 (PDZ3 in PDZ2/3 tandem) PDZ3 in PDZ2/3 (protein) EVKLFKNSSGLGFSFSREDNLIPEQINASIVRVKKLFPGQPAAESGKIDVGDVILKVNGASLKGLSQQEVISALRGTAPEVFLLLCRP"
recordedmeasurement = 2.59

[[record]]
binder = "PTPN13 PDZ2 (protein) DIFEVELAKNDNSLGISVTGGVNTSVRHGGIYVKAVIPQGAAESDGRIHKGDRVLAVNGVSLEGATHKQAVETLRNTGQVVHLLLEKGQSP"
recordedmeasurement = 3.54

